# target-system: human histamine H4 receptor (Homo sapiens)
# Construct: cell membranes
# Sequence (Q9H3N8 whole entry): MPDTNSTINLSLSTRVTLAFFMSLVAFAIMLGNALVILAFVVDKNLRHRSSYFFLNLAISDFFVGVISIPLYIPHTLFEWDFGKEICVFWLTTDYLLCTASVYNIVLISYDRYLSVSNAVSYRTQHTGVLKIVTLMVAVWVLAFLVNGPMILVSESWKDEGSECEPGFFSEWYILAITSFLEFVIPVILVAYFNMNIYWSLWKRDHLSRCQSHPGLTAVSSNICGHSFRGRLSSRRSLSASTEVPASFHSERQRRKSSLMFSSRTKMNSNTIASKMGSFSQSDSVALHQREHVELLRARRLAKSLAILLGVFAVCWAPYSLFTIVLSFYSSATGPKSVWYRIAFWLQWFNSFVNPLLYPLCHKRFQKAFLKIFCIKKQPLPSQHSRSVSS
# assay-name: Binding Assay on Recombinant Human Histamine H4 Receptor (3H-histamine competition, membranes of transfected SK-N-MC or COS7 cells)
# cond: competition with 3H-histamine (5 nM ligand, KD 5 nM), Cheng-Prusoff; mean of results; > = solubility limit or highest concentration tested
Counter-ions that a name gives are not always drawn.
readout: Ki (nM)
Field format: number, assumed nM, no unit text.

## Task # query: Ki of entry CN1CCC[C@@H]2CN(C(=O)c3cc4ccccc4[nH]3)C[C@@H]21 (relative stereo)
## Result 560

## Task What value of Ki has been reported for the following compound? `CN1C[C@@H]2C[C@H]1CN2C(=O)c1cc2ccccc2[nH]1`
## Result 3200

## Task I have this compound here, Cc1ccc2[nH]c(C(=O)N3C[C@H]4CCCN[C@H]4C3)cc2c1 (relative stereo) [Example 29, hydrochloride salt] , and I need its recorded Ki.
## Result 41

## Task Which measured Ki value corresponds to O=C(c1cc2cc(Cl)ccc2[nH]1)N1C[C@H]2CCCN[C@H]2C1 [Example 11, hydrochloride salt] ?
## Result 27

## Task Endpoint output: Ki of O=C(c1cc2ccccc2[nH]1)N1C[C@@H]2C[C@H]1CN2 [Example 1, hydrochloride salt] . Value?
## Result 1110

## Task What Ki value was documented for this compound, CNC1CCN(C(=O)c2nc3ccccc3[nH]2)C1 (centres unmarked) [Example 30, hydrochloride salt] ?
## Result 2000

## Task Please give the measured Ki for this compound: O=C(c1cc2cc(Cl)ccc2[nH]1)N1C[C@@H]2CCCN[C@@H]2C1 [Example 12A]
## Result 180

## Task Fill in: Ki of CN[C@@H]1CCN(C(=O)c2cc3ccccc3[nH]2)C1 [Example 4, hydrochloride salt] is ___
## Result 160

## Task Reported Ki for CN1CCC[C@@H]2CN(C(=O)c3cc4cc(Cl)ccc4[nH]3)C[C@@H]21 (relative stereo) : what is it?
## Result 240

## Task Param item = O=C(c1cc2cc(Cl)ccc2[nH]1)N1C[C@H]2CCCN[C@H]2C1 (relative stereo) [Example 10] ; retrieve measured Ki.
## Result 8
